Assay: in vivo
Parameters: species or system male CD-1 mice
Details: male, CD-1, mouse, sc, 5 mg/kg
Bridge positions count the residues as written; N and C are the ends. Square brackets hold non-standard residues; d marks the D form. Peptide text beside a SMILES is read from it. * marks the point of attachment. Lauroyl = CCCCCCCCCCCC(=O)*; Dab = NCC[C@H](N)C(=O)O
experimentalEndpoint: level at 0.5 h (ng/mL)
Express the result in ng/mL but write the number alone.

// Input: CCCCCCCCCCCC(=O)NCCCC[C@@H]1NC(=O)[C@H](Cc2ccc(O)cc2)NC(=O)[C@@H]2CSSC[C@H](NC(=O)[C@H](C)NC(=O)[C@H](Cc3c[nH]cn3)NC(=O)[C@H](Cc3ccc(O)cc3)NC(=O)[C@@H]3CCCN3C(=O)[C@H]3CCCN3C(=O)[C@H](CCCCN)NC1=O)C(=O)N[C@@H](CCCNC(=N)N)C(=O)N[C@@H](C)C(=O)N1CCC[C@@H]1C(=O)N[C@@H](CCN)C(=O)N[C@@H](CCCNC(=N)N)C(=O)N[C@@H](Cc1ccc(O)cc1)C(=O)N2 [Ex. 17] (cyclo(YHACRA[dP][Dab]RYCYK(Lauroyl)K[dP]P); disulfide 4-11) . Output its level at 0.5 h only.
450

----------
Assay: in vivo
Set-up: species or system male CD-1 mice
Settings: male, CD-1, mouse, iv, 1 mg/kg
Bridge positions count the residues as written; N and C are the ends. Square brackets hold non-standard residues; d marks the D form. Peptide text beside a SMILES is read from it. * marks the point of attachment. Lauroyl = CCCCCCCCCCCC(=O)*; Dab = NCC[C@H](N)C(=O)O
experimentalEndpoint: level at 0.25 h (ng/mL)
Please state the figure in ng/mL; there is no need to write the unit.

Identify measured level at 0.25 h associated with CCCCCCCCCCCC(=O)NCCCC[C@@H]1NC(=O)[C@H](Cc2ccc(O)cc2)NC(=O)[C@@H]2CSSC[C@H](NC(=O)[C@H](C)NC(=O)[C@H](Cc3c[nH]cn3)NC(=O)[C@H](Cc3ccc(O)cc3)NC(=O)[C@@H]3CCCN3C(=O)[C@H]3CCCN3C(=O)[C@H](CCCCN)NC1=O)C(=O)N[C@@H](CCCNC(=N)N)C(=O)N[C@@H](C)C(=O)N1CCC[C@@H]1C(=O)N[C@@H](CCN)C(=O)N[C@@H](CCCNC(=N)N)C(=O)N[C@@H](Cc1ccc(O)cc1)C(=O)N2 [Ex. 17] (cyclo(YHACRA[dP][Dab]RYCYK(Lauroyl)K[dP]P); disulfide 4-11)
2030

----------
Test: Cytotoxicity, MTT reduction assay, HELA cells
Assay type: cell-based
Conditions: human, HELA cells (Acc57), 12.5-50 μM
Bridge positions count the residues as written; N and C are the ends. Square brackets hold non-standard residues; d marks the D form. Peptide text beside a SMILES is read from it. Gly(Dodecyl) = CCCCCCCCCCCC[C@H](N)C(=O)O; Dab = NCC[C@H](N)C(=O)O
experimentalEndpoint: GI50 at 48 h

Consider the molecule CCCCCCCCCCCC[C@@H]1NC(=O)[C@H](Cc2c[nH]cn2)NC(=O)[C@H](Cc2ccc(O)cc2)NC(=O)[C@@H]2CCCN2C(=O)[C@H]2CCCN2C(=O)[C@H](CCCCN)NC(=O)[C@H](CCC(N)=O)NC(=O)[C@H](Cc2ccc(O)cc2)NC(=O)[C@@H]2CSSC[C@H](NC1=O)C(=O)N[C@@H](CCCNC(=N)N)C(=O)N[C@@H](C)C(=O)N1CCC[C@@H]1C(=O)N[C@@H](CCN)C(=O)N[C@@H](CCCNC(=N)N)C(=O)N[C@@H](Cc1ccc(O)cc1)C(=O)N2 [Ex. 2] (cyclo(YH[Gly(Dodecyl)]CRA[dP][Dab]RYCYQK[dP]P); disulfide 4-11) and give its recorded GI50 at 48 h.
> 13 µM

----------
Test: Plasma stability in human plasma
Assay type: in vitro ADME
Settings: human plasma, 37° C., 1440 min; read-out: human pl. cpd left at 1440 min
Bridge positions count the residues as written; N and C are the ends. Square brackets hold non-standard residues; d marks the D form. Peptide text beside a SMILES is read from it. Gly(Dodecyl) = CCCCCCCCCCCC[C@H](N)C(=O)O; Dab = NCC[C@H](N)C(=O)O
experimentalEndpoint: remaining at 24 h, 10 μM (%)
A number alone suffices; assume %.

Identify remaining at 24 h, 10 μM associated with the compound CCCCCCCCCCCC[C@@H]1NC(=O)[C@H](Cc2c[nH]cn2)NC(=O)[C@H](Cc2ccc(O)cc2)NC(=O)[C@@H]2CCCN2C(=O)[C@H]2CCCN2C(=O)[C@H](CCCCN)NC(=O)[C@H](CCC(N)=O)NC(=O)[C@H](Cc2ccc(O)cc2)NC(=O)[C@@H]2CSSC[C@H](NC1=O)C(=O)N[C@@H](CCCNC(=N)N)C(=O)N[C@@H](C)C(=O)N1CCC[C@@H]1C(=O)N[C@@H](CCN)C(=O)N[C@@H](CCCNC(=N)N)C(=O)N[C@@H](Cc1ccc(O)cc1)C(=O)N2 [Ex. 2] (cyclo(YH[Gly(Dodecyl)]CRA[dP][Dab]RYCYQK[dP]P); disulfide 4-11)
96

----------
Assignment: determine reported mouse pl. T1/2 for the given molecules.
Experiment: Plasma stability in mouse plasma
Format: in vitro ADME
Conditions: mouse plasma, 37° C., up to 1440 min
Bridge positions count the residues as written; N and C are the ends. Square brackets hold non-standard residues; d marks the D form. Peptide text beside a SMILES is read from it. * marks the point of attachment. Lauroyl = CCCCCCCCCCCC(=O)*; Dab = NCC[C@H](N)C(=O)O; Dodecyl = CCCCCCCCCCCC*
Your reply should be a number followed by the unit it is expressed in.

Look up and state reported mouse pl. T1/2 for CCCCCCCCCCCC(=O)NCC[C@@H]1NC(=O)[C@H]2CCCN2C(=O)[C@H](C)NC(=O)[C@H](CCCNC(=N)N)NC(=O)[C@@H]2CSSC[C@H](NC(=O)[C@H](Cc3ccc(O)cc3)NC(=O)[C@H](CCCNC(=N)N)NC1=O)C(=O)N[C@@H](Cc1ccc(O)cc1)C(=O)N[C@@H](CCC(N)=O)C(=O)N[C@@H](CCCCN)C(=O)N1CCC[C@@H]1C(=O)N1CCC[C@H]1C(=O)N[C@@H](Cc1ccc(O)cc1)C(=O)N[C@@H](Cc1c[nH]cn1)C(=O)N[C@@H](C)C(=O)N2 [Ex. 5] (cyclo(YHACRA[dP][Dab](Lauroyl)RYCYQK[dP]P); disulfide 4-11)
24 h

Tell me mouse pl. T1/2 reported for CCCCCCCCCCCCOc1ccc(C[C@@H]2NC(=O)[C@H](CCCNC(=N)N)NC(=O)[C@H](CCN)NC(=O)[C@H]3CCCN3C(=O)[C@H](C)NC(=O)[C@H](CCCNC(=N)N)NC(=O)[C@@H]3CSSC[C@H](NC2=O)C(=O)N[C@@H](Cc2ccc(O)cc2)C(=O)N[C@@H](CCC(N)=O)C(=O)N[C@@H](CCCCN)C(=O)N2CCC[C@@H]2C(=O)N2CCC[C@H]2C(=O)N[C@@H](Cc2ccc(O)cc2)C(=O)N[C@@H](Cc2c[nH]cn2)C(=O)N[C@@H](C)C(=O)N3)cc1 [Ex. 7] (cyclo(YHACRA[dP][Dab]RY(Dodecyl)CYQK[dP]P); disulfide 4-11)
24 h

----------
Test: Plasma stability in mouse plasma
Assay type: in vitro ADME
Details: mouse plasma, 37° C., up to 1440 min; read-out: mouse pl. T1/2
Bridge positions count the residues as written; N and C are the ends. Square brackets hold non-standard residues; d marks the D form. Peptide text beside a SMILES is read from it. * marks the point of attachment. Gly(Dodecyl) = CCCCCCCCCCCC[C@H](N)C(=O)O; Lauroyl = CCCCCCCCCCCC(=O)*; Octanoyl = CCCCCCCC(=O)*; Dab = NCC[C@H](N)C(=O)O
experimentalEndpoint: half-life at 10 μM (min)
Write the value in min as a bare number.

// Input: CCCCCCCC(=O)NCCCC[C@@H]1NC(=O)[C@H](Cc2ccc(O)cc2)NC(=O)[C@@H]2CSSC[C@H](NC(=O)[C@H](Cc3ccc(O)cc3)NC(=O)[C@H](Cc3c[nH]cn3)NC(=O)[C@H](Cc3ccc(O)cc3)NC(=O)[C@@H]3CCCN3C(=O)[C@H]3CCCN3C(=O)[C@H](CCCCN)NC1=O)C(=O)N[C@@H](CO)C(=O)N[C@@H](C)C(=O)N1CCC[C@@H]1C(=O)N[C@@H](CCN)C(=O)N[C@@H](CCCNC(=N)N)C(=O)N[C@@H](Cc1ccc(O)cc1)C(=O)N2 [Ex. 12] (cyclo(YHYCSA[dP][Dab]RYCYK(Octanoyl)K[dP]P); disulfide 4-11) . Output its half-life at 10 μM only.
420

Answer with the recorded half-life at 10 μM of CCCCCCCCCCCC(=O)NCCCC[C@@H]1NC(=O)[C@H](Cc2ccc(O)cc2)NC(=O)[C@@H]2CSSC[C@H](NC(=O)[C@H](C)NC(=O)[C@H](Cc3c[nH]cn3)NC(=O)[C@H](Cc3ccc(O)cc3)NC(=O)[C@@H]3CCCN3C(=O)[C@H]3CCCN3C(=O)[C@H](CCCCN)NC1=O)C(=O)N[C@@H](CCCNC(=N)N)C(=O)N[C@@H](C)C(=O)N1CCC[C@@H]1C(=O)N[C@@H](CCN)C(=O)N[C@@H](CCCNC(=N)N)C(=O)N[C@@H](Cc1ccc(O)cc1)C(=O)N2 [Ex. 17] (cyclo(YHACRA[dP][Dab]RYCYK(Lauroyl)K[dP]P); disulfide 4-11) only.
1170

Indicate its recorded half-life at 10 μM; the compound in question is CCCCCCCCCCCC[C@@H]1NC(=O)[C@H](Cc2c[nH]cn2)NC(=O)[C@H](Cc2ccc(O)cc2)NC(=O)[C@@H]2CCCN2C(=O)[C@H]2CCCN2C(=O)[C@H](CCCCN)NC(=O)[C@H](CCC(N)=O)NC(=O)[C@H](Cc2ccc(O)cc2)NC(=O)[C@@H]2CSSC[C@H](NC1=O)C(=O)N[C@@H](CCCNC(=N)N)C(=O)N[C@@H](C)C(=O)N1CCC[C@@H]1C(=O)N[C@@H](CCN)C(=O)N[C@@H](CCCNC(=N)N)C(=O)N[C@@H](Cc1ccc(O)cc1)C(=O)N2 [Ex. 2] (cyclo(YH[Gly(Dodecyl)]CRA[dP][Dab]RYCYQK[dP]P); disulfide 4-11)
1400
